Listing of recorded excess molar enthalpy by entry.
# testDescription: excess molar enthalpy (molar enthalpy of mixing); xn = mol fraction of the nth substance listed
# measurementParameters: 298.15 K; 101 kPa; Liquid; Flow calorimetry; x2 = 0.85
Give just the numeric value; kcal/mol need not be written.

CCCC(C)=O [pentan-2-one] + C1CCOCC1: 0.0145
CCCCCC(C)=O [2-heptanone] + C1CCOCC1: 0.0103
O=C1CCCC1 [cyclopentanone] + C1CCOCC1: 0.0219

// below: excess molar enthalpy requested for another compound
// query excess molar enthalpy value for entry O=C1CCCCC1 [cyclohexanone] + C1CCOCC1
0.0137

* * *

# testDescription: excess molar enthalpy (molar enthalpy of mixing); xn = mol fraction of the nth substance listed
# measurementParameters: 298.15 K; 101 kPa; Liquid; Flow calorimetry; x2 = 0.7
recordedMetric: excess molar enthalpy (kcal/mol)
Give just the numeric value; kcal/mol need not be written.

Worked cases, excess molar enthalpy given:
O=C1CCCCC1 [cyclohexanone] + C1CCOCC1: 0.0199
CCCCCC(C)=O [2-heptanone] + C1CCOCC1: 0.0142
CCCC(C)=O [pentan-2-one] + C1CCOCC1: 0.0212

// query excess molar enthalpy value for entry O=C1CCCC1 [cyclopentanone] + C1CCOCC1
0.0336
